Attribution: PubChem BioAssay AID1963959

Property: viability, T/C; scope: individual compounds
- Tested on: T-47D spheroids with HUVEC/MSC, viability
- TEST: Anticancer human tumor T-47D cell line growth inhibition [PI3K];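 note: spheroids exposed to agents for seven days before reading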;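 for viability, T/C: percent of DMSO vehicle control luminescence so 100% = untreated growth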
- RUN_CONDITIONS: second compound 3.16 µM; first compound 1 µM; stronger effect = lower value
Enter your answer as a number in %; do not include the unit.

Some solved entries appear below for comparison.
[
  {
    "COMPOUND": "CC1(C)CCC(Nc2ncc(C(F)(F)F)c(-c3c[nH]c4c(P(C)(C)=O)c(C#N)ccc34)n2)CN1 (centres undefined) + CC(Nc1ncnc2nc[nH]c12)c1cc2cccc(Cl)c2c(=O)n1-c1ccccc1",
    "NUMERIC_VALUE": 60
  },
  {
    "COMPOUND": "CCN1CCN(Cc2ccc(Nc3ncc(F)c(-c4cc(F)c5nc(C)n(C(C)C)c5c4)n3)nc2)CC1 + CC(Nc1ncnc2nc[nH]c12)c1cc2cccc(Cl)c2c(=O)n1-c1ccccc1",
    "NUMERIC_VALUE": 85.9
  },
  {
    "COMPOUND": "C=CC(=O)N1CCN(c2nc(=O)n(-c3c(C)ccnc3C(C)C)c3nc(-c4c(O)cccc4F)c(F)cc23)C(C)C1 (centres undefined) + CC(Nc1ncnc2nc[nH]c12)c1cc2cccc(Cl)c2c(=O)n1-c1ccccc1",
    "NUMERIC_VALUE": 94.1
  }
]

Can you share its viability, T/C? I mean this compound: CC(C)NCC(C(=O)N1CCN(c2ncnc3c2C(C)CC3O)CC1)c1ccc(Cl)cc1 (centres undefined) + Cc1nc(NC(=O)N2CCCC2C(N)=O)sc1-c1ccnc(C(C)(C)C(F)(F)F)c1
44.1

----------
- Tested on: T-47D spheroids with HUVEC/MSC, viability
- TEST: Anticancer human tumor T-47D cell line growth inhibition [PI3K];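 note: spheroids exposed to agents for seven days before reading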
- RUN_CONDITIONS: curve of first compound; second compound 0.316 µM
IC50: recorded values

[
  {
    "COMPOUND": "CC(C)n1nc(-c2ccc3oc(N)nc3c2)c2c(N)ncnc21 + CC(Nc1ccc2c(c1)OCCn1cc(N3C(=O)OCC3C(F)F)nc1-2)C(N)=O",
    "IC50": "5.64 nM"
  },
  {
    "COMPOUND": "CC(=O)c1c(C)c2cnc(Nc3ccc(N4CCNCC4)cn3)nc2n(C2CCCC2)c1=O + CC(Nc1ccc2c(c1)OCCn1cc(N3C(=O)OCC3C(F)F)nc1-2)C(N)=O",
    "IC50": "> 100 nM"
  },
  {
    "COMPOUND": "CC(=O)c1c(C)c2cnc(Nc3ccc(N4CCNCC4)cn3)nc2n(C2CCCC2)c1=O + COc1c(OCCCN2CCOCC2)ccc2c3n(c(=NC(=O)c4cnc(N)nc4)nc12)CCN3",
    "IC50": "< 0.316 nM"
  },
  {
    "COMPOUND": "Cn1ncc(Cl)c1-c1cc(C(=O)NC(CN)Cc2cccc(F)c2)sc1Cl (stereo not given) + Cc1nc(NC(=O)N2CCCC2C(N)=O)sc1-c1ccnc(C(C)(C)C(F)(F)F)c1",
    "IC50": "> 10000 nM"
  },
  {
    "COMPOUND": "CNC(=O)c1ccc(N2C(=S)N(c3ccc(C#N)c(C(F)(F)F)c3)C(=O)C2(C)C)cc1F + Cc1nc(NC(=O)N2CCCC2C(N)=O)sc1-c1ccnc(C(C)(C)C(F)(F)F)c1",
    "IC50": "> 10000 nM"
  }
]

Record C[C@@H](NC(=O)c1ncnc(N)c1Cl)c1ncc(C(=O)Nc2cc(C(F)(F)F)c(Cl)cn2)s1 + Cc1nc(NC(=O)N2CCCC2C(N)=O)sc1-c1ccnc(C(C)(C)C(F)(F)F)c1 : what is its IC50 with T-47D spheroids with HUVEC/MSC, viability?
> 10000 nM

What IC50 appears in the records for this compound with T-47D spheroids with HUVEC/MSC, viability? CC(Cn1ccc(-c2ccc(C#N)c(Cl)c2)n1)NC(=O)c1cc(C(C)O)[nH]n1 (stereo not given) + Cc1nc(NC(=O)N2CCCC2C(N)=O)sc1-c1ccnc(C(C)(C)C(F)(F)F)c1
> 10000 nM

Find the measured IC50: item Cn1ncc(Cl)c1-c1cc(C(=O)NC(CN)Cc2cccc(F)c2)sc1Cl (stereo not given) + CC(Nc1ccc2c(c1)OCCn1cc(N3C(=O)OCC3C(F)F)nc1-2)C(N)=O , target or system T-47D spheroids with HUVEC/MSC, viability.
> 10000 nM

Request: IC50, test system T-47D spheroids with HUVEC/MSC, viability, entry C#Cc1c(F)ccc2cc(O)cc(-c3ncc4c(N5CC6CCC(C5)N6)nc(OCC56CCCN5CC(F)C6)nc4c3F)c12 (stereo not given) + COc1c(OCCCN2CCOCC2)ccc2c3n(c(=NC(=O)c4cnc(N)nc4)nc12)CCN3
< 31.6 nM

Tell me reported IC50 for CC(C)NCC(C(=O)N1CCN(c2ncnc3c2C(C)CC3O)CC1)c1ccc(Cl)cc1 (stereo not given) + CC(Nc1ccc2c(c1)OCCn1cc(N3C(=O)OCC3C(F)F)nc1-2)C(N)=O , tested with T-47D spheroids with HUVEC/MSC, viability.
2420 nM

# returns recorded IC50 (system: T-47D spheroids with HUVEC/MSC, viability) for CCN1CCN(Cc2ccc(Nc3ncc(F)c(-c4cc(F)c5nc(C)n(C(C)C)c5c4)n3)nc2)CC1 + CC(Nc1ccc2c(c1)OCCn1cc(N3C(=O)OCC3C(F)F)nc1-2)C(N)=O
17.3 nM

Find IC50 (T-47D spheroids with HUVEC/MSC, viability) for the entry CC(C)NCC(C(=O)N1CCN(c2ncnc3c2C(C)CC3O)CC1)c1ccc(Cl)cc1 (stereo not given) + CC(Nc1ncnc2nc[nH]c12)c1cc2cccc(Cl)c2c(=O)n1-c1ccccc1
> 10000 nM
